# TARGET ENTITY: HLA-B07.02 class I MHC molecule (prepared complex) (human)
# RUN DESCRIPTION: displacement of radiolabeled reference peptide from class I MHC, gel filtration; 'Affinity (nM)'
# COND: remark: other sources report otherwise

{"BINDER": "MQLMPFGCL [EGFR_T790M peptide …]", "IC50": "1590 nM"}
